Test system: 786-O
Assay: Cytotoxicity assay (Version 2, automated, AC50) with/without neutrophil elastase
Assay type: cell-based, human
Settings: without (−) neutrophil elastase, Version 2, activity concentration at −50%
Below: a set of entries, each annotated with reported AC50.
value-type: AC50

[[record]]
compound = "CCCNC(=O)Nc1cccc(S(=O)(=O)Nc2cccc([C@H](CC(=O)O)NC(=O)Nc3ccc(NC(=O)NCCOCCOCCOCCC(=O)NCCCC[C@H](NC(=O)CCOCCOCCOCCNC(=O)Nc4ccc(NC(=O)N[C@@H](CC(=O)O)c5cccc(NS(=O)(=O)c6cccc(NC(=O)NCCC)c6)c5)cc4)C(=O)NCCOCCOCCOCCC(=O)N[C@@H](CC(=O)O)C(=O)N4CCC[C@H]4C(=O)N[C@H](C(=O)N=[S@@](C)(=O)Cc4cc5cc(c4)OCCCCOc4cc(F)ccc4-c4nc(ncc4F)N5)C(C)C)cc3)c2)c1"
value_type = "AC50"
test_value = "100 to 1000 nM"

[[record]]
compound = "CCCNC(=O)Nc1cccc(S(=O)(=O)Nc2cccc([C@@H](CC(=O)O)NC(=O)Nc3ccc(NC(=O)NCCOCCOCCOCCC(=O)N[C@@H](CC(=O)O)C(=O)N4CCC[C@H]4C(=O)N[C@H](C(=O)N=S(C)(=O)Cc4cc5cc(c4)OCCCCOc4cc(F)ccc4-c4nc(ncc4F)N5)C(C)C)cc3)c2)c1 (relative stereo)"
value_type = "AC50"
test_value = "100 to 1000 nM"

[[record]]
compound = "CCCNC(=O)Nc1cccc(S(=O)(=O)Nc2cccc([C@@H](CC(=O)O)NC(=O)Nc3ccc(NC(=O)NCCOCCOCCOCCC(=O)N[C@@H](CC(=O)O)C(=O)N4CCC[C@H]4C(=O)N[C@H](C(=O)N=[S@@](C)(=O)Cc4cc5nc(c4)OCCCOc4cc(F)ccc4-c4cc(ncc4F)N5)C(C)C)cc3)c2)c1 (racemic)"
value_type = "AC50"
test_value = "100 to 1000 nM"


====

System: HT29
Assay: Cytotoxicity assay (Version 2, automated, AC50) with/without neutrophil elastase
Format: cell-based, human
Settings: HT29, without (−) neutrophil elastase, Version 2, activity concentration at −50%
value-type: AC50

[[record]]
compound = "CCCNC(=O)Nc1cccc(S(=O)(=O)Nc2cccc([C@@H](CC(=O)O)NC(=O)Nc3ccc(NC(=O)NCCOCCOCCOCCC(=O)NCCNC(=O)CC[C@H](NC(=O)CCCC(=O)NCCN(C)CCN(C)CCN(C)CC(=O)N[C@@H](CC(N)=O)C(=O)N4CCC[C@H]4C(=O)N[C@H](C(=O)N=[S@@](C)(=O)Cc4cc5cc(c4)OCCCCOc4cc(F)ccc4-c4nc(ncc4F)N5)C(C)C)C(=O)NCCNC(=O)CCOCCOCCOCCNC(=O)Nc4ccc(NC(=O)N[C@H](CC(=O)O)c5cccc(NS(=O)(=O)c6cccc(NC(=O)NCCC)c6)c5)cc4)cc3)c2)c1 [Compound 25]"
test_value = "> 1 µM"


====

AC50 overview
Tested on: HT29
Experiment: Cytotoxicity assay (Version 2, automated, AC50) with/without neutrophil elastase
Type: cell-based, human
Details: HT29, without (−) neutrophil elastase, Version 2, activity concentration at −50%
value-type: AC50

[[record]]
compound = "CCCNC(=O)Nc1cccc(S(=O)(=O)Nc2cccc([C@@H](CC(=O)O)NC(=O)Nc3ccc(NC(=O)NCCOCCOCCOCCC(=O)N[C@@H](CC(=O)O)C(=O)N4CCC[C@H]4C(=O)N[C@H](C(=O)N=S(C)(=O)Cc4cc5cc(c4)OCCCCOc4cc(F)ccc4-c4nc(ncc4F)N5)C(C)C)cc3)c2)c1 (relative stereo)"
value_type = "AC50"
test_value = "100 to 1000 nM"

[[record]]
compound = "CCCNC(=O)Nc1cccc(S(=O)(=O)Nc2cccc([C@@H](CC(=O)O)NC(=O)Nc3ccc(NC(=O)NCCOCCOCCOCCC(=O)N[C@@H](CC(=O)O)C(=O)N4CCC[C@H]4C(=O)N[C@H](C(=O)N=[S@](C)(=O)Cc4cc5nc(c4)O[C@H](C)CCCCOc4cc(F)ccc4-c4cc(ncc4F)N5)C(C)C)cc3)c2)c1 (relative stereo)"
value_type = "AC50"
test_value = "> 1000 nM"

[[record]]
compound = "CCCNC(=O)Nc1cccc(S(=O)(=O)Nc2cccc([C@@H](CC(=O)[O-])NC(=O)Nc3ccc(NC(=O)NCCOCCOCCOCCC(=O)N[C@@H](CC(=O)[O-])C(=O)N4CCC[C@H]4C(=O)N[C@H](C(=O)N=[S@@](C)(=O)Cc4cc5cc(c4)OCCCCOc4cc(F)ccc4-c4nc(ncc4F)N5)C(C)C)cc3)c2)c1.[Na+].[Na+]"
value_type = "AC50"
test_value = "> 1000 nM"


====

Tested on: 786-O
Assay: Cytotoxicity assay (Version 2, automated, AC50) with/without neutrophil elastase
Assay type: cell-based, human
Conditions: with (+) neutrophil elastase, Version 2, activity concentration at −50%
value-type: AC50

[[record]]
compound = "CCCNC(=O)Nc1cccc(S(=O)(=O)Nc2cccc([C@@H](CC(=O)O)NC(=O)Nc3ccc(NC(=O)NCCN(C)CCN(C)CCN(C)CC(=O)N[C@@H](CC(N)=O)C(=O)N4CCC[C@H]4C(=O)N[C@H](C(=O)N=[S@@](C)(=O)Cc4cc5cc(c4)O[C@@H](C)CCOc4cc(F)ccc4-c4nc(ncc4F)N5)C(C)C)cc3)c2)c1 (single isomer, unassigned) [Compound 24]"
test_value = "≤ 0.01 µM"

[[record]]
compound = "CCCNC(=O)Nc1cccc(S(=O)(=O)Nc2cccc([C@@H](CC(=O)O)NC(=O)Nc3ccc(NC(=O)NCCN(C)CCN(C)CCN(C)CC(=O)N[C@@H](CC(N)=O)C(=O)N4CCC[C@H]4C(=O)N[C@H](C(=O)N=S(C)(=O)Cc4cc5nc(c4)OCCCOc4cc(F)ccc4-c4cc(ncc4F)N5)C(C)C)cc3)c2)c1 (mixture of isomers) [Compound 22]"
test_value = "≤ 0.01 µM"

[[record]]
compound = "CCCNC(=O)Nc1cccc(S(=O)(=O)Nc2cccc([C@@H](CC(=O)O)NC(=O)Nc3ccc(NC(=O)NCCOCCOCCOCCC(=O)NCCCC[C@H](NC(=O)CCOCCOCCOCCNC(=O)Nc4ccc(NC(=O)N[C@H](CC(=O)O)c5cccc(NS(=O)(=O)c6cccc(NC(=O)NCCC)c6)c5)cc4)C(=O)NCCOCCOCCOCCC(=O)N[C@@H](CC(=O)O)C(=O)N4CCC[C@H]4C(=O)N[C@H](C(=O)N=[S@@](C)(=O)Cc4cc5cc(c4)OCCCCOc4cc(F)ccc4-c4nc(ncc4F)N5)C(C)C)cc3)c2)c1 [Compound 18]"
test_value = "0.011 to 0.1 µM"

[[record]]
compound = "CCCNC(=O)Nc1cccc(S(=O)(=O)Nc2cccc([C@@H](CC(=O)O)NC(=O)Nc3ccc(NC(=O)NCCOCCOCCOCCC(=O)NCCCC[C@H](NC(=O)CCOCCOCCOCCNC(=O)Nc4ccc(NC(=O)N[C@H](CC(=O)O)c5cccc(NS(=O)(=O)c6cccc(NC(=O)NCCC)c6)c5)cc4)C(=O)NCCOCCOCCOCCC(=O)N[C@@H](CC(=O)O)C(=O)N4CCC[C@H]4C(=O)N[C@H](C(=O)N=[S@](C)(=O)Cc4cc5cc(c4)O[C@H](C)CCOc4cc(F)ccc4-c4nc(ncc4F)N5)C(C)C)cc3)c2)c1 (relative stereo) [Compound 31]"
test_value = "≤ 0.01 µM"

[[record]]
compound = "CCCNC(=O)Nc1cccc(S(=O)(=O)Nc2cccc([C@@H](CC(=O)O)NC(=O)Nc3ccc(NC(=O)N(C)CCN(C)CCN(C)CC(=O)N[C@@H](CC(N)=O)C(=O)N4CCC[C@H]4C(=O)N[C@H](C(=O)N=[S@@](C)(=O)Cc4cc5cc(c4)OCCCCOc4cc(F)ccc4-c4nc(ncc4F)N5)C(C)C)cc3)c2)c1 [Compound 5]"
test_value = "0.011 to 0.1 µM"

[[record]]
compound = "CCCNC(=O)Nc1cccc(S(=O)(=O)Nc2cccc([C@@H](CC(=O)O)NC(=O)Nc3ccc(NC(=O)NCCOCCOCCOCCC(=O)N[C@@H](CC(=O)O)C(=O)N4CCC[C@H]4C(=O)N[C@H](C(=O)N=[S@](C)(=O)Cc4cc5nc(c4)O[C@@H](C)CCCCOc4cc(F)ccc4-c4cc(ncc4F)N5)C(C)C)cc3)c2)c1 (relative stereo) [Compound 55]"
test_value = "0.011 to 0.1 µM"

[[record]]
compound = "CCCNC(=O)Nc1cccc(S(=O)(=O)Nc2cccc([C@H](CC(=O)O)NC(=O)Nc3ccc(NC(=O)NCCOCCOCCOCCC(=O)N[C@@H](CC(=O)O)C(=O)N4CCC[C@H]4C(=O)N[C@H](C(=O)N=[S@@](C)(=O)Cc4cc5cc(c4)OCCCCOc4cc(F)ccc4-c4nc(ncc4F)N5)C(C)C)cc3)c2)c1 [Compound 14]"
test_value = "0.011 to 0.1 µM"

[[record]]
compound = "CCCNC(=O)Nc1cccc(S(=O)(=O)Nc2cccc([C@@H](CC(=O)O)NC(=O)Nc3ccc(NC(=O)NCCOCCOCCOCCC(=O)N[C@@H](CC(=O)OCCCCN(C)C)C(=O)N4CCC[C@H]4C(=O)N[C@H](C(=O)N=S(C)(=O)Cc4cc5cc(c4)OCCCCOc4cc(F)ccc4-c4nc(ncc4F)N5)C(C)C)cc3)c2)c1 (single isomer, unassigned) [Compound 21]"
test_value = "0.011 to 0.1 µM"

[[record]]
compound = "CCCNC(=O)Nc1cccc(S(=O)(=O)Nc2cccc([C@H](CC(=O)O)NC(=O)Nc3ccc(NC(=O)NCCN(C)CCN(C)CCN(C)CC(=O)N[C@@H](CC(N)=O)C(=O)N4CCC[C@H]4C(=O)N[C@H](C(=O)N=S(C)(=O)Cc4cc5nc(c4)OCCCOc4cc(F)ccc4-c4cc(ncc4F)N5)C(C)C)cc3)c2)c1 (mixture of isomers) [Compound 23]"
test_value = "≤ 0.01 µM"

[[record]]
compound = "CCCNC(=O)Nc1cccc(S(=O)(=O)Nc2cccc([C@@H](CC(=O)O)NC(=O)Nc3ccc(NC(=O)NCCOCCOCCOCCC(=O)NCCNC(=O)CC[C@H](NC(=O)CCCC(=O)NCCN(C)CCN(C)CCN(C)CC(=O)N[C@@H](CC(N)=O)C(=O)N4CCC[C@H]4C(=O)N[C@H](C(=O)N=[S@@](C)(=O)Cc4cc5cc(c4)OCCCCOc4cc(F)ccc4-c4nc(ncc4F)N5)C(C)C)C(=O)NCCNC(=O)CCOCCOCCOCCNC(=O)Nc4ccc(NC(=O)N[C@H](CC(=O)O)c5cccc(NS(=O)(=O)c6cccc(NC(=O)NCCC)c6)c5)cc4)cc3)c2)c1 [Compound 25]"
test_value = "0.011 to 0.1 µM"

[[record]]
compound = "CCCNC(=O)Nc1cccc(S(=O)(=O)Nc2cccc([C@@H](CC(=O)O)NC(=O)Nc3ccc(NC(=O)NCCOCCOCCOCCC(=O)N[C@@H](CC(=O)O)C(=O)N4CCC[C@H]4C(=O)N[C@H](C(=O)N=S(C)(=O)Cc4cccc(Nc5ncnc(-c6ccc(F)cc6OC)n5)c4)C(C)C)cc3)c2)c1 (relative stereo) [Compound 1]"
test_value = "> 1 µM"

[[record]]
compound = "CCCNC(=O)Nc1cccc(S(=O)(=O)Nc2cccc([C@@H](CC(=O)O)NC(=O)Nc3ccc(NC(=O)N(C)CCN(C)CCN(C)CC(=O)N[C@@H](CC(N)=O)C(=O)N4CCC[C@H]4C(=O)N[C@H](C(=O)N=[S@@](C)(=O)Cc4ccnc(Nc5cc(-c6ccc(F)cc6OC)c(F)cn5)c4)C(C)C)cc3)c2)c1 [Compound 4]"
test_value = "0.011 to 0.1 µM"

